meta.source: patent US20160046618A1

- assayed target: human recombinant BACE2 (Homo sapiens (Human))
- Sequence (Q9Y5Z0 63-518): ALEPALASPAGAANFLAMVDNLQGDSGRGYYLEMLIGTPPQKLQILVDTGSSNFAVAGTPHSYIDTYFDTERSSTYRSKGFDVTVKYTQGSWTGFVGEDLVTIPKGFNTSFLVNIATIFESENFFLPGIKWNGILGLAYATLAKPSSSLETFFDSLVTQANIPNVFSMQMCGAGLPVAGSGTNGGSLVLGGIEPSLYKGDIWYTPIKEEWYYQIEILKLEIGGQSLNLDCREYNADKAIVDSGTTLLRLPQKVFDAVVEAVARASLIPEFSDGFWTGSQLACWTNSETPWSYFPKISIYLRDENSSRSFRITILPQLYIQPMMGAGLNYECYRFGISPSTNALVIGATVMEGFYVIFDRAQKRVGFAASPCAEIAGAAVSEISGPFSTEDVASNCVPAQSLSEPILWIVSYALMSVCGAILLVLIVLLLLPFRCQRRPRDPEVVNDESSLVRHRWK
- run description: In vitro enzymatic BACE2 FRET assay
- Type: biochemical
- run parameters: read-out: IC50 IP (μM) BACE2 enzyme
Catalogue of IC50 readings, one per entry.
A number alone suffices; assume µM.

Sample records with IC50:
> print(dat)
                                   molecule  quantity.kind  experimental.value
1  C[C@]1(c2cc(NC(=O)c3ccc(OCC(F)(F)F)cn3)ccc2F)N=C(N)S[C@@]2(CF)C[C@H]21 [Example 697]           IC50               0.338
2  CC(C)(CF)NC(=O)[C@]12C[C@H]1[C@@](C)(c1cc(NC(=O)c3ccc(C#N)cn3)ccc1F)N=C(N)S2 [Example 1018]           IC50             0.00651
3  COC[C@]12C[C@H]1[C@@](C)(c1cc(NC(=O)c3ncc(OCc4ncco4)nc3C)cc(F)c1F)N=C(N)S2 [Example 863]           IC50              0.0249
4  COC[C@]12C[C@H]1[C@@](C)(c1cc(NC(=O)c3cnc(OCC(F)(F)C(F)F)cn3)cc(F)c1F)N=C(N)S2 [Example 734]           IC50               0.188
5  COC[C@]12C[C@H]1[C@@](C)(c1cc(Nc3nccc4nc(OCc5nc(C)no5)cnc34)cc(F)c1F)N=C(N)S2 [Example 882]           IC50               0.381
6  C#CCOc1cnc2c(Nc3ccc(F)c([C@@]4(C)N=C(N)S[C@]5(C(C)(C)O)[C@H]4C5(F)F)c3)nccc2n1 [Example 712]           IC50              0.0516

Query string: Identify IC50 associated with the molecule C#CCOc1cnc2c(Nc3ccc(F)c([C@@]4(C)N=C(N)S[C@@]5(C(F)F)C[C@@H]45)c3)ncnc2c1 [Example 819]
Result string: 0.0412

---

- Tested on: Aβ40 in conditioned medium of cells stably expressing Amyloid Precursor Protein (APP)
- run description: In vitro BACE-1 cell-based assay (Aβ40 sandwich ELISA)
- run parameters: BACE1 cell-based assay; read-out: IC50 IP (μM) BACE1 cell
So basically, if IC50 comes in under 0.01 µM it's rule met, and if it's 0.01 µM or more it's rule not met.

Some solved entries appear below for comparison.
> print(dat)
                                   compound                            assayed.target   group.label
1  NC1=N[C@](CF)(c2cc(Nc3nccc4nc(OCc5ncco5)cnc34)ccc2F)C2C[C@@H]2S1 (stereo in doubt)  Aβ40 in conditioned medium of cells stably expressing Amyloid Precursor Protein (APP)  rule not met
2  NC1=N[C@](CF)(c2cc(NC(=O)c3ccc(Cl)cn3)cc(F)c2F)[C@@H]2C[C@]2(CO)S1  Aβ40 in conditioned medium of cells stably expressing Amyloid Precursor Protein (APP)      rule met
3  C[C@]1(c2cc(NC(=O)c3ccc(Cl)cn3)ccc2F)N=C(N)S[C@@H]2[C@H]1C2(F)F  Aβ40 in conditioned medium of cells stably expressing Amyloid Precursor Protein (APP)  rule not met
4  Cc1cc(Cl)cnc1C(=O)Nc1cc(F)c(F)c([C@@]2(C)N=C(N)S[C@H]3C[C@H]32)c1  Aβ40 in conditioned medium of cells stably expressing Amyloid Precursor Protein (APP)  rule not met
5  C#CCOc1cnc(C(=O)Nc2cc(F)c(F)c([C@@]3(C)N=C(N)S[C@@]4(COC)C[C@H]43)c2)cn1  Aβ40 in conditioned medium of cells stably expressing Amyloid Precursor Protein (APP)      rule met

Query string: Please state whether IC50 is below 0.01 µM for C#CCOc1cnc(C(=O)Nc2ccc(F)c([C@@]3(CF)N=C(N)S[C@@]4(CO)C[C@H]43)c2)cn1
Result string: rule met

Query string: Please state whether IC50 is below 0.01 µM for COc1cnc(C(=O)Nc2ccc(F)c([C@@]3(CF)N=C(N)S[C@H]4C[C@H]43)c2)cn1
Result string: rule not met

Query string: Please state whether IC50 is below 0.01 µM for COc1cnc2c(Nc3cc(F)c(F)c([C@@]4(C)N=C(N)S[C@@]5(CO)C[C@H]54)c3)nccc2n1
Result string: rule not met

Query string: Please state whether IC50 is below 0.01 µM for N#Cc1cnc2c(Nc3ccc(F)c([C@@]4(CF)N=C(N)S[C@H]5C[C@H]54)c3)ncnc2c1
Result string: rule met

Query string: Please state whether IC50 is below 0.01 µM for C#CCOc1ccc(C(=O)Nc2cc(F)c(F)c([C@@]3(C)N=C(N)S[C@@]4(CO)C[C@H]43)c2)nc1
Result string: rule met

Query string: Please state whether IC50 is below 0.01 µM for Cc1cc(C#N)cnc1C(=O)Nc1ccc(F)c([C@@]2(CF)N=C(N)S[C@@]3(CO)C[C@H]32)c1
Result string: rule met

---

Catalogue of log10 of IC50 readings, one per entry.
- assayed target: human recombinant BACE1 (Homo sapiens (Human))
- Sequence (P56817 46-501): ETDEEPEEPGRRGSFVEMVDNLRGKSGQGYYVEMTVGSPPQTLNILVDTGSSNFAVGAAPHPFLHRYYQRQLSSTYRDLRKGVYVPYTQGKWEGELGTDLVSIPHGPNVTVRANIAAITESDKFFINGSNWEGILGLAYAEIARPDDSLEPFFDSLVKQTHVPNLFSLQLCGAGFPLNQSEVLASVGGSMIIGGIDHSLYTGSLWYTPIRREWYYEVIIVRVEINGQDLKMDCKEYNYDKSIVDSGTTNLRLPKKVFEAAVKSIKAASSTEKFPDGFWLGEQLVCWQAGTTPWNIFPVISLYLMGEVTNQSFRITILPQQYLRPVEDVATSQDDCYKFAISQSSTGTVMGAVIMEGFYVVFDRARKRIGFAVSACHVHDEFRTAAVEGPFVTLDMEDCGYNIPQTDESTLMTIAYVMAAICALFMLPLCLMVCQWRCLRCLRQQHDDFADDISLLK
- run description: In vitro enzymatic BACE1 FRET assay
- Type: biochemical
- run parameters: read-out: IC50 IP (μM) BACE1 enzyme
Log scale reminder: IC50 in nM, then log10 taken.

> print(dat)
                                   compound  experimental.value
1  C#CCOc1cnc2c(Nc3cc(F)c(F)c([C@@]4(C)N=C(N)S[C@@]5(C(F)F)C[C@@H]45)c3)nccc2n1 [Example 805]               -0.65
2  COC[C@]12C[C@H]1[C@@](C)(c1cc(NC(=O)c3cnc(OCc4nnc(C)o4)cn3)cc(F)c1F)N=C(N)S2 [Example 1037]               -0.10
3  COC[C@]12C[C@H]1[C@@](C)(c1cc(NC(=O)c3cnc(OCc4noc(C)n4)cn3)cc(F)c1F)N=C(N)S2 [Example 1013]                0.14
4  Cc1cc(OCC(F)(F)F)cnc1C(=O)Nc1ccc(F)c([C@@]2(C)N=C(N)S[C@@]3(CF)C[C@H]32)c1 [Example 689]                1.02
5  CC#CCOc1cnc2c(Nc3cc(F)c(F)c([C@@]4(C)N=C(N)S[C@@]5(C(F)F)C[C@@H]45)c3)nccc2n1 [Example 868]               -0.17
6  COC[C@]12C[C@H]1[C@@](C)(c1cc(NC(=O)c3cnc(O[C@H](C)C(F)(F)F)cn3)ccc1F)N=C(N)S2 (single isomer, unassigned) [Example 996]                2.09
7  C#CCOc1cnc(C(=O)Nc2cc(C)c(F)c([C@@]3(C)N=C(N)S[C@@]4(COC)C[C@H]43)c2)cn1 [Example 1043]               -0.45
8  C=C[C@@H](C)Oc1cnc(C(=O)Nc2ccc(F)c([C@@]3(C)N=C(N)S[C@@]4(COC)C[C@H]43)c2)cn1 (mixture of isomers) [Example 1051]                1.52

Query string: Consider the compound CC(=O)[C@]12C[C@H]1[C@@](C)(c1cc(Nc3ncnc4cc(Cl)cnc34)cc(F)c1F)N=C(N)S2 [Example 902] tested on human recombinant BACE1 (Homo sapiens (Human)); state its log10 of IC50.
Result string: 1.17

Query string: Consider the compound CC(=O)[C@]12C[C@H]1[C@@](C)(c1cc(Nc3ncnc4cc(C#N)cnc34)cc(F)c1F)N=C(N)S2 [Example 904] tested on human recombinant BACE1 (Homo sapiens (Human)); state its log10 of IC50.
Result string: 1.15

Query string: Consider the compound C#CCOc1cnc2c(Nc3cnc(F)c([C@@]4(C)N=C(N)S[C@@]5([C@@H](OC)C(F)(F)F)C[C@H]54)c3)nccc2n1 [Example 677] tested on human recombinant BACE1 (Homo sapiens (Human)); state its log10 of IC50.
Result string: 0.20

Query string: Consider the compound COC[C@]12C[C@H]1[C@@](C)(c1cc(NC(=O)c3ccc(OCC(F)(F)C(F)F)cn3)cc(F)c1F)N=C(N)S2 [Example 732] tested on human recombinant BACE1 (Homo sapiens (Human)); state its log10 of IC50.
Result string: 0.53

Query string: Consider the compound COC[C@]12C[C@H]1[C@@](C)(c1cc(NC(=O)c3c[nH]c(=O)cn3)cc(F)c1F)N=C(N)S2 [Example 1027] tested on human recombinant BACE1 (Homo sapiens (Human)); state its log10 of IC50.
Result string: 1.29

Query string: Consider the compound CN(C)C(=O)[C@]12C[C@H]1[C@@](C)(c1cc(NC(=O)c3cnc(OCC(F)(F)F)cn3)ccc1F)N=C(N)S2 [Example 1000] tested on human recombinant BACE1 (Homo sapiens (Human)); state its log10 of IC50.
Result string: -1.15
